Target: Kallikrein-7 (Homo sapiens)
Sequence (P49862 whole entry, the tested form may be a part): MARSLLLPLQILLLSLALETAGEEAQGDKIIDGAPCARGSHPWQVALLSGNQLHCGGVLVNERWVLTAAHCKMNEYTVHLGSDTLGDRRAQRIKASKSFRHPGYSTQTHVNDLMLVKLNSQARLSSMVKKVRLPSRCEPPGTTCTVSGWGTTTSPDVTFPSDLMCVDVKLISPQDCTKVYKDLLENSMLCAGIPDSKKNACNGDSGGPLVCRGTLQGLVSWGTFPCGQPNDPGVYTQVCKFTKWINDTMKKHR
Assay: Inhibition of thermolysin activated recombinant human C-terminal 10-His tagged KLK7 (E23 to H252 residues) using MOCAc-Arg-Pro-Lys-Pro-Val-Glu-Nva-Trp-Arg-Lys(Dnp)-NH2 as substrate preincubated for 10 mins followed by substrate addition and measured after 30 mins by fluorescence analysis
pIC50: −log10 of the molar value.
recorded_metric: pIC50

CC1=NC(c2cn(S(=O)(=O)c3ccc(Cl)cc3)c3ccccc23)CN1C (stereo not drawn) | < 4.52
CC1=NC(c2cn(S(=O)(=O)c3cccc(Cl)c3)c3ccccc23)CN1 (stereo not drawn) | < 4.52
CC1=NC(c2cn(S(C)(=O)=O)c3ccccc23)CN1 (stereo not drawn) | < 4.00
